Source of measurements: ChEMBL document CHEMBL5724914

- protocol conditions: human gut metagenome, 24 h, 2 µM; note: call rule not given here
metric name: Bacterial Biotransformation

Worked examples follow.
>>> print(df.to_string())
                                   compound                  reported
0  CCOc1ccccc1OCCN[C@H](C)Cc1ccc(OC)c(S(N)(=O)=O)c1.Cl [TAMSULOSIN HYDROCHLORIDE]  Compound NOT metabolized
1  COc1ccc(CN2CCNCC2)c(OC)c1OC.Cl.Cl [TRIMETAZIDINE DIHYDROCHLORIDE]  Compound NOT metabolized
2  CN(C)CCc1c[nH]c2ccc(CS(=O)(=O)N3CCCC3)cc12  Compound NOT metabolized
3      CN(C/C=C/C#CC(C)(C)C)Cc1cccc2ccccc12  Compound NOT metabolized
4  O=C(O)c1cc(/N=N/c2ccc(S(=O)(=O)Nc3ccccn3)cc2)ccc1O      Compound metabolized

Turning now to a further record.
Data request, read-out Bacterial Biotransformation, for CCN(CC)C(=O)C1(c2ccccc2)CC1CN (stereo not drawn)
Compound NOT metabolized

----------
- protocol summary: The drug is tested on Z-003 corresponding to pig gut metagenome with ENA study accession number: PRJEB37062 and ENA sample accession number: ERS12561803 for biotransformation under anaerobic condition. The drug concentrations were measured over 9 timepoints collected between 0 and 24 hours of incubation by liquid-chromatography-coupled mass spectrometry (LC–MS)
- protocol conditions: 2 µM
metric name: Bacterial Biotransformation

compound	Bacterial Biotransformation
CN(C)C(=O)Oc1cccc([N+](C)(C)C)c1.[Br-] [NEOSTIGMINE BROMIDE]	Compound metabolized
CCOC(=O)[C@H](CCc1ccccc1)N[C@@H](C)C(=O)N1Cc2ccccc2C[C@H]1C(=O)O	Compound metabolized
CC(=O)OCC(=O)[C@@]1(OC(C)=O)[C@@H](C)C[C@H]2[C@@H]3C[C@H](F)C4=CC(=O)C=C[C@]4(C)[C@@]3(F)[C@@H](O)C[C@@]21C [DIFLORASONE DIACETATE]	Compound NOT metabolized
CC(=O)Nc1ccc(OC(C)=O)cc1 [DIACETAMATE]	Compound metabolized
C=C[C@H]1CN2CC[C@H]1C[C@H]2[C@H](O)c1ccnc2ccc(OC)cc12.C=C[C@H]1CN2CC[C@H]1C[C@H]2[C@H](O)c1ccnc2ccc(OC)cc12.O.O.O=S(=O)(O)O [QUININE SULFATE]	Compound NOT metabolized

Data request, read-out Bacterial Biotransformation, for COc1cc(NC(C)CCCN)c2ncccc2c1.O=P(O)(O)O.O=P(O)(O)O (stereo not drawn) [PRIMAQUINE PHOSPHATE]
Compound NOT metabolized

Moving on to CC(=O)O[C@]1(C(C)=O)CC[C@H]2[C@@H]3C=C(C)C4=CC(=O)CC[C@]4(C)[C@H]3CC[C@@]21C [MEGESTROL ACETATE]
Compound metabolized

Moving on to COC(=O)C(c1ccccc1)C1CCCCN1 (stereo not drawn) [METHYLPHENIDATE]
Compound metabolized

----------
- protocol conditions: human gut metagenome, 24 h, 2 µM
metric name: Bacterial Biotransformation

Worked examples follow.
>>> print(df.to_string())
                                   molecule                  metric_name                  reported
0  COc1cc2nc(N3CCN(C(=O)C4CCCO4)CC3)nc(N)c2cc1OC (stereo unspecified)  Bacterial Biotransformation      Compound metabolized
1  CCc1cccc2c3c([nH]c12)C(CC)(CC(=O)O)OCC3 (stereo unspecified)  Bacterial Biotransformation      Compound metabolized
2  COCCCC/C(=N\OCCN)c1ccc(C(F)(F)F)cc1.O=C(O)/C=C\C(=O)O [FLUVOXAMINE MALEATE]  Bacterial Biotransformation      Compound metabolized
3  CC[C@@]1(O)C(=O)OCc2c1cc1n(c2=O)Cc2cc3c(CN(C)C)c(O)ccc3nc2-1  Bacterial Biotransformation  Compound NOT metabolized
4         CNCC[C@H](Oc1cccc2ccccc12)c1cccs1  Bacterial Biotransformation      Compound metabolized
5  CC(NC(C)(C)C)C(=O)c1cccc(Cl)c1 (stereo unspecified)  Bacterial Biotransformation      Compound metabolized
6  CN1CCN(C2=Nc3ccccc3Oc3ccc(Cl)cc32)CC1.O=C(O)CCC(=O)O [LOXAPINE SUCCINATE]  Bacterial Biotransformation  Compound NOT metabolized
7  CC[C@H](C)C(=O)O[C@H]1CCC=C2C=C[C@H](C)[C@H](CC[C@@H]3C[C@@H](O)CC(=O)O3)[C@H]21  Bacterial Biotransformation      Compound metabolized
8  CCOC(=O)C1=C[C@]2(CC)CCCN3CCc4c(n1c1ccccc41)[C@@H]32  Bacterial Biotransformation      Compound metabolized
9  CCN(CC)CCNC(=O)c1ccc(NC(C)=O)cc1 [ACECAINIDE]  Bacterial Biotransformation      Compound metabolized

Turning now to a further record.
Data request, read-out Bacterial Biotransformation, for CC1Cc2ccccc2N1NC(=O)c1ccc(Cl)c(S(N)(=O)=O)c1 (stereo unspecified) [INDAPAMIDE]
Compound NOT metabolized

----------
- protocol conditions: human gut metagenome, 24 h, 2 µM
metric name: Bacterial Biotransformation

Worked examples follow.
molecule	reported
CC1Cc2ccccc2N1NC(=O)c1ccc(Cl)c(S(N)(=O)=O)c1 (stereo not given) [INDAPAMIDE]	Compound NOT metabolized
CNCC[C@H](Oc1cccc2ccccc12)c1cccs1	Compound NOT metabolized
O=C1C(CC[S+]([O-])c2ccccc2)C(=O)N(c2ccccc2)N1c1ccccc1 (stereo not given)	Compound metabolized
c1ccc2[nH]c(-c3cscn3)nc2c1	Compound NOT metabolized
CC[C@@]1(O)C(=O)OCc2c1cc1n(c2=O)Cc2cc3c(CN(C)C)c(O)ccc3nc2-1	Compound NOT metabolized
CC(=O)OCC(=O)NCCCOc1cccc(CN2CCCCC2)c1 [ROXATIDINE ACETATE]	Compound metabolized
O=C(NC(Cc1cc(=O)[nH]c2ccccc12)C(=O)O)c1ccc(Cl)cc1 (stereo not given) [REBAMIPIDE]	Compound metabolized
CCOc1ccc2nc(S(N)(=O)=O)sc2c1 [ETHOXZOLAMIDE]	Compound NOT metabolized

Turning now to a further record.
Data request, read-out Bacterial Biotransformation, for CC(=O)Oc1ccc(C(c2ccc(OC(C)=O)cc2)c2ccccn2)cc1
Compound metabolized

----------
- protocol conditions: human gut metagenome, 24 h, 2 µM
metric name: Bacterial Biotransformation

molecule	Bacterial Biotransformation
O=C(NC(Cc1cc(=O)[nH]c2ccccc12)C(=O)O)c1ccc(Cl)cc1 (stereo not given) [REBAMIPIDE]	Compound NOT metabolized
O=C1C(CC[S+]([O-])c2ccccc2)C(=O)N(c2ccccc2)N1c1ccccc1 (stereo not given)	Compound metabolized
COc1cc2nc(N3CCN(C(=O)C4CCCO4)CC3)nc(N)c2cc1OC (stereo not given)	Compound NOT metabolized
C[C@]12CCC(=O)C=C1[C@@H]1C[C@@H]1[C@H]1[C@@H]3[C@@H]4C[C@@H]4[C@@]4(CCC(=O)O4)[C@@]3(C)CC[C@@H]12	Compound NOT metabolized
C#C[C@]1(OC(C)=O)CC[C@H]2[C@@H]3CCC4=C/C(=N/O)CC[C@@H]4[C@H]3CC[C@@]21CC [NORGESTIMATE]	Compound NOT metabolized

Data request, read-out Bacterial Biotransformation, for CC#CCn1c(N2CCC[C@@H](N)C2)nc2c1c(=O)n(Cc1nc(C)c3ccccc3n1)c(=O)n2C
Compound NOT metabolized

Moving on to C[C@@H](c1ncncc1F)[C@](O)(Cn1cncn1)c1ccc(F)cc1F
Compound metabolized

Moving on to CCOc1cc(CC(=O)N[C@@H](CC(C)C)c2ccccc2N2CCCCC2)ccc1C(=O)O [REPAGLINIDE]
Compound metabolized

Moving on to CC(=O)O[C@]1(C(C)=O)CC[C@H]2[C@@H]3C=C(C)C4=CC(=O)CC[C@]4(C)[C@H]3CC[C@@]21C [MEGESTROL ACETATE]
Compound metabolized

Moving on to CCN(CC)C(=O)C1(c2ccccc2)CC1CN (stereo not given)
Compound NOT metabolized

Moving on to CC(CCc1ccccc1)NCC(O)c1ccc(O)c(C(N)=O)c1 (stereo not given)
Compound NOT metabolized

----------
- protocol conditions: human gut metagenome, 24 h, 2 µM
metric name: Bacterial Biotransformation

Worked examples follow.
compound	Bacterial Biotransformation
CC#C[C@]1(O)CC[C@H]2[C@@H]3CCC4=CC(=O)CCC4=C3[C@@H](c3ccc(N(C)C)cc3)C[C@@]21C [MIFEPRISTONE]	Compound NOT metabolized
CCS(=O)(=O)CCn1c([N+](=O)[O-])cnc1C [TINIDAZOLE]	Compound metabolized
C=C[C@H]1CN2CC[C@H]1C[C@H]2[C@H](O)c1ccnc2ccc(OC)cc12.C=C[C@H]1CN2CC[C@H]1C[C@H]2[C@H](O)c1ccnc2ccc(OC)cc12.O.O.O=S(=O)(O)O [QUININE SULFATE]	Compound metabolized
CNCC[C@H](Oc1cccc2ccccc12)c1cccs1 [DULOXETINE]	Compound NOT metabolized

Turning now to a further record.
Data request, read-out Bacterial Biotransformation, for C[C@@H](c1ncncc1F)[C@](O)(Cn1cncn1)c1ccc(F)cc1F [VORICONAZOLE]
Compound metabolized
